MEASUREMENT TARGET: HCV polymerase (Hepatitis C virus genotype 1b)
Construct: 2.5 pmoles (0.15 μg) HCV polymerase protein in a final volume of 75 μL
ASSAY REMARKS: HCV polymerase primer/template-directed transcription assay (32P-GTP incorporation, filter binding)
Assay type: biochemical
EXPERIMENTAL SETUP: @ 50 uM compound; given where IC50 was impractical to calculate; read-out: percent inhibition
inhibition at 50 µM values, listed per item
Report as: number unit

MOLECULE	MEASUREMENT TARGET	ENDPOINT NAME	RECORDED RESULT
CC(=O)n1nc(C)c(CCC2(C3CCCC3)CC(=O)CC(=O)O2)c1C (stereo not drawn)	HCV polymerase (Hepatitis C virus genotype 1b)	inhibition at 50 µM	37%
CCC1(C)CC(O)=C(Sc2nc3nc(C)cc(C)n3n2)C(=O)O1 (stereo not drawn)	HCV polymerase (Hepatitis C virus genotype 1b)	inhibition at 50 µM	12%

API: the following record is the query input.
Exercise: Recorded inhibition at 50 µM of CCOC(=O)CC(=O)N[C@H](C)c1ccc(CCC2(C3CCCC3)CC(=O)CC(=O)O2)cc1 (stereo partly drawn) , please.
Solution: 14%

====

MEASUREMENT TARGET: HCV polymerase (Hepatitis C virus genotype 1b)
Construct: 2.5 pmoles (0.15 μg) HCV polymerase protein in a final volume of 75 μL
ASSAY REMARKS: HCV polymerase primer/template-directed transcription assay (32P-GTP incorporation, filter binding)
Format: biochemical
EXPERIMENTAL SETUP: @ 50 uM compound; given where IC50 was impractical to calculate; read-out: percent inhibition
inhibition at 50 µM values, listed per item
Kindly answer with a numeric value in %, unit omitted.

Here's what some known entries look like.
COMPOUND	inhibition at 50 µM [%]
CCC1(CC)CC(O)=C(Sc2nc3nc(C)cc(C)n3n2)C(=O)O1	2
CCC1(CC)CC(O)=C(Sc2nc3cc(Cl)ccc3n2C(C)C)C(=O)O1	22
O=C1CC(=O)OC(CSc2ncccn2)(C2CCCC2)C1 (stereo not shown)	27
COc1ccc(CCC2(CC(C)C)CC(=O)CC(=O)O2)cc1 (stereo not shown)	29

API: the following record is the query input.
Exercise: Recorded inhibition at 50 µM of O=C1CC(=O)OC(CSCc2ccco2)(C2CCCC2)C1 (stereo not shown) , please.
Solution: 22

====

MEASUREMENT TARGET: HCV polymerase (Hepatitis C virus genotype 1b, UniProt P26663)
Construct: 2.5 pmoles (0.15 μg) HCV polymerase protein in a final volume of 75 μL
Sequence (P26663 2420-3010): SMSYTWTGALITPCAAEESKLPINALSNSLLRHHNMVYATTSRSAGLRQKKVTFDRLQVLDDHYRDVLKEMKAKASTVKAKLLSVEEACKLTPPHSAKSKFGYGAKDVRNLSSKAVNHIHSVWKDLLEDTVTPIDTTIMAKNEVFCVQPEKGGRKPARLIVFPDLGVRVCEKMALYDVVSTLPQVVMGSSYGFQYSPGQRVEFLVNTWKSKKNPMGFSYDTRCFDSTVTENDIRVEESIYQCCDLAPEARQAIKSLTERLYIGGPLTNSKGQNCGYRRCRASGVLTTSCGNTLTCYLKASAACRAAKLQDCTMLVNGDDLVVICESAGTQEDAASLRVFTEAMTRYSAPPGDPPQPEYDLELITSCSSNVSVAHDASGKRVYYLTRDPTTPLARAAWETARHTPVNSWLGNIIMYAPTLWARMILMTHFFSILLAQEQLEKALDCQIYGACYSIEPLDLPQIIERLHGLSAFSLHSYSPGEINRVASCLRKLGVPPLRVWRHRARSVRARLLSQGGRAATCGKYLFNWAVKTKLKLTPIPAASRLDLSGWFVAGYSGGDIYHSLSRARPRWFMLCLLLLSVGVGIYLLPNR
ASSAY REMARKS: HCV polymerase primer/template-directed transcription assay (32P-GTP incorporation, filter binding)
Format: biochemical
EXPERIMENTAL SETUP: recombinant HCV polymerase; 30 minutes at 30° C.; concentration giving 50% inhibition of polymerase-directed transcription; read-out: IC50
ENDPOINT NAME: pIC50
Reminder that pIC50 is minus the log10 of a molar concentration.

Here's what some known entries look like.
COMPOUND	pIC50
COc1cc(OC)c(CCC2(C3CCCC3)CC(O)=C(Sc3nc4cc(Cl)ccc4n3C)C(=O)O2)cc1Cl (centres unmarked) [C(63)]	8.10
COc1ccc(CCC2(C3CCCC3)CC(O)=C(Sc3cccc4cccnc34)C(=O)O2)cc1Cl (centres unmarked) [C(03)]	6.30
CC(C)(C)C(=O)c1ccc(CCC2(C3CCCC3)CC(=O)CC(=O)O2)cc1 (centres unmarked) [A(37)]	5.06
CCCc1cc(CCC2(C3CCCC3)CC(O)=C(Cc3nc4nc(CC)cc(CC)n4n3)C(=O)O2)ccc1O (centres unmarked) [A(137)]	8.15
CCCOc1ccc(CCC2(C3CCCC3)CC(=O)CC(=O)O2)cc1 (centres unmarked) [A(60)]	5.06
CCc1cc(CCC2(C3CCCC3)CC(O)=C(Cc3nc4ncc(C)cn4n3)C(=O)O2)cc(F)c1O (centres unmarked) [A(125)]	7.96

Exercise: Requested read-out pIC50, target or system HCV polymerase (Hepatitis C virus genotype 1b, UniProt P26663), entry CCc1ccc(O)c(CCC2(C3CCCC3)CC(O)=C(Cc3nc4nc(C)cc(C)n4n3)C(=O)O2)c1 (centres unmarked) [A(166)]
Solution: 9.00

Exercise: Requested read-out pIC50, target or system HCV polymerase (Hepatitis C virus genotype 1b, UniProt P26663), entry Cc1cc(C)n2nc(CC3=C(O)CC(CCc4ccc(C(C)(C)C#N)c(Cl)c4)(C4CCCC4)OC3=O)nc2n1 (centres unmarked) [A(146)]
Solution: 8.70

====

MEASUREMENT TARGET: HCV polymerase (Hepatitis C virus genotype 1b)
Construct: 2.5 pmoles (0.15 μg) HCV polymerase protein in a final volume of 75 μL
ASSAY REMARKS: HCV polymerase primer/template-directed transcription assay (32P-GTP incorporation, filter binding)
Type: biochemical
EXPERIMENTAL SETUP: recombinant HCV polymerase; 30 minutes at 30° C.; concentration giving 50% inhibition of polymerase-directed transcription; read-out: IC50
log10 IC50 values, listed per item
Field: value | Transform: log10 | Quantity: IC50 | Unit: nM

Exercise: Recorded log10 IC50 of COc1ccc(CCC2(C3CCCC3)CC(O)=C(SCCc3ccccn3)C(=O)O2)cc1Cl (centres unmarked) , please.
Solution: 2.95

Exercise: Recorded log10 IC50 of CC(C)Oc1ccc(CCC2(C3CCCC3)CC(O)=C(Sc3nnc(-c4ccccc4)[nH]3)C(=O)O2)cc1F (centres unmarked) , please.
Solution: 1.71

Exercise: Recorded log10 IC50 of COC(=O)Nc1cc(CC2=C(O)CC(CCc3ccc(C(F)F)c(F)c3)(C3CCCC3)OC2=O)on1 (centres unmarked) , please.
Solution: 3.15

====

MEASUREMENT TARGET: HCV polymerase (Hepatitis C virus genotype 1b, UniProt P26663)
Construct: 2.5 pmoles (0.15 μg) HCV polymerase protein in a final volume of 75 μL
ASSAY REMARKS: HCV polymerase primer/template-directed transcription assay (32P-GTP incorporation, filter binding)
Assay type: biochemical
EXPERIMENTAL SETUP: recombinant HCV polymerase; 30 minutes at 30° C.; concentration giving 50% inhibition of polymerase-directed transcription; read-out: IC50
ENDPOINT NAME: pIC50
Reminder that pIC50 is minus the log10 of a molar concentration.

Here's what some known entries look like.
COMPOUND	ENDPOINT NAME	RECORDED RESULT
COc1ccc(CCC2(C3CCCC3)CC(=O)C(Cc3cccnc3)C(=O)O2)cc1Cl (stereo not shown)	pIC50	6.25
CCc1cc(CCC2(C3CCCC3)CC(O)=C(Cc3nc4nc(C)cc(C)n4n3)C(=O)O2)ccn1 (stereo not shown)	pIC50	8.00
CCc1cc(CCC2(C3CCCC3)CC(O)=C(Cc3nc4ncc(Cl)cn4n3)C(=O)O2)c(F)cc1O (stereo not shown)	pIC50	8.10

API: the following record is the query input.
Exercise: Recorded pIC50 of Cc1cnc2nc(CC3=C(O)CC(CCc4ccc(C5(C#N)CC5)c(Cl)c4)(C4CCCC4)OC3=O)nn2c1 (stereo not shown) , please.
Solution: 8.40

====

MEASUREMENT TARGET: HCV polymerase (Hepatitis C virus genotype 1b, UniProt P26663)
Construct: 2.5 pmoles (0.15 μg) HCV polymerase protein in a final volume of 75 μL
ASSAY REMARKS: HCV polymerase primer/template-directed transcription assay (32P-GTP incorporation, filter binding)
Type: biochemical
EXPERIMENTAL SETUP: recombinant HCV polymerase; 30 minutes at 30° C.; concentration giving 50% inhibition of polymerase-directed transcription; read-out: IC50
# binning rule on IC50: label 0 = under 40 nM, label 1 = from 40 nM up to 400 nM, label 2 = 400 nM and over

Field: example entries. Status: answers known.
COMPOUND	ASSIGNED CLASS
CC(=O)c1ccc(CCC2(C3CCCC3)CC(=O)CC(=O)O2)s1 (stereo not drawn) [A(84)]	label 2
COc1ccc(CCC2(C3CCCC3)CC(O)=C(Sc3nc4nccc(C)n4n3)C(=O)O2)cc1Cl (stereo not drawn) [C(95)]	label 1
Cc1cc(C)n2nc(CC3=C(O)CC(CCc4ccc(C(C)C)c(F)c4)(C4CCCC4)OC3=O)nc2n1 (stereo not drawn) [B(45)]	label 1

Exercise: Each compound maps to one class by IC50. Which class for CCc1cc(CCC2(C3CCCC3)CC(O)=C(Cc3nc4ncccn4n3)C(=O)O2)c(OC)cc1O (stereo not drawn) [A(207)] ?
Solution: label 0

Exercise: Each compound maps to one class by IC50. Which class for Cc1cc(C)n2nc(CC3=C(O)CC(CCc4cccc(C(C)(C)C)c4)(C4CCCC4)OC3=O)nc2n1 (stereo not drawn) [B(03)] ?
Solution: label 0

Exercise: Each compound maps to one class by IC50. Which class for CC(C)(CO)c1ccc(CCC2(C3CCCC3)CC(=O)CC(=O)O2)cc1F (stereo not drawn) [A(121)] ?
Solution: label 2

Exercise: Each compound maps to one class by IC50. Which class for COC(=O)C1(c2cccc(CCC3(C4CCCC4)CC(=O)CC(=O)O3)c2)CC1 (stereo not drawn) [A(69)] ?
Solution: label 2

Exercise: Each compound maps to one class by IC50. Which class for COCc1ccc(CCC2(C3CCCC3)CC(=O)CC(=O)O2)cc1F (stereo not drawn) [A(08)] ?
Solution: label 2
